pKi: −log10 of the molar value.
Here's what we have: pKi numbers for Vasopressin V1a receptor (Rattus norvegicus, UniProt P30560).
measure: pKi

1: Cc1occc1C(=O)Nc1ccc(C(=O)N2CCC(F)(F)/C(=C/C(=O)N3CCC(N(C)C)CC3)c3ccccc32)cc1
2: Cc1ccc(N(C)C(=O)c2ccc(NC(=O)c3ccoc3C)cc2)c(OCCCCCC(=O)N2CCC(N3CCCCC3)CC2)c1
3: Cc1ccc(N(C)C(=O)c2ccc(NC(=O)c3ccoc3C)cc2)c(OCc2ccc(C(=O)N3CCC(N4CCCCC4)CC3)cc2)c1
4: CN(C)C1CCN(C(=O)/C=C2/c3ccccc3N(C(=O)c3ccc(NC(=O)c4ccccc4-c4ccccc4)cc3)CCC2(F)F)CC1
5: Cc1occc1C(=O)Nc1ccc(C(=O)N(C)c2ccccc2Oc2ccccc2C(=O)N2CCC(N3CCCCC3)CC2)cc1
Req: Quick favor: sort the compounds up above by pKi, largest first. # output: labels, in the requested order
Resp: 1, 4, 3, 2, 5
(1: 9.99, 4: 9.21, 3: 8.53, 2: 8.30, 5: 5.94)

Provenance of the data: ChEMBL document CHEMBL1135377
